The values you see were collected from patent EP4714952A1.

The listing below reports IC50 for compounds tested on CYP2C19 (Homo sapiens).
Sequence (P33261 whole entry): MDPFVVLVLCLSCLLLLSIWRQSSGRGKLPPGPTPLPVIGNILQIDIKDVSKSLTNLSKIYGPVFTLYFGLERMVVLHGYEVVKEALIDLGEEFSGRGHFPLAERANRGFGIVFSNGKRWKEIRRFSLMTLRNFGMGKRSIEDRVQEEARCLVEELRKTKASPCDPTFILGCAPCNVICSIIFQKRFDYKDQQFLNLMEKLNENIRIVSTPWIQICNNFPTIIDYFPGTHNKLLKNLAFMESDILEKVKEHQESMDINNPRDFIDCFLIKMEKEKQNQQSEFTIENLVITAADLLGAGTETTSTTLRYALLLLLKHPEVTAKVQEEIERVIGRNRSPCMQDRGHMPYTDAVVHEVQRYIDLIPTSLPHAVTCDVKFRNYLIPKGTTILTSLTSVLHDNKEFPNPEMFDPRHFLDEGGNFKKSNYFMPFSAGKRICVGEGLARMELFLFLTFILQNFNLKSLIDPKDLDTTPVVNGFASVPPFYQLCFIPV

CCOc1cc2c(cc1OC)-c1cc(N(CCNC(N)=O)c3c(C)cc(C)cc3C)nc(=O)n1CC2 | > 50 µM
CCOc1cc2c(cc1OC)-c1cc(N(CCC(=O)NCCO)c3c(C)cc(C)cc3C)nc(=O)n1CC2 | > 50 µM

Now examine the next entry.
## Task Which IC50 is reported for this compound? CCOc1cc2c(cc1OC)-c1cc(N(CCC(=O)O)c3c(C)cc(C)cc3C)nc(=O)n1CC2
## Result > 50 µM
